Form field: %Inh (one value per entry).
# Tested on: PIM3
# condition: concentration: 1 μM, replicates: in singlicate; n = 1;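 further: KINOMEscan kinase panel screen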
Write the answer as a number in %, unit excluded.

# annotated cases, reported %Inh shown
molecule: O=C(Nc1n[nH]c2nc(-c3cccs3)c(Br)cc12)C1CC1 [SB-735297]
%Inh (%): 0

molecule: COc1ccc(Nc2nccc(N3CCC(NC(=O)C(C)c4ccc(Cl)cc4)C3)n2)cc1 (centres unmarked) [GSK1379735]
%Inh (%): 35

Reading of %Inh for Cn1cncc1-c1cc2c(Nc3ccc(OCc4ccccc4)cc3)ncnc2cn1 [GW281179] with PIM3: 0

Reading of %Inh for O=C(Nc1n[nH]c2nc(-c3ccco3)c(Br)cc12)C1CCN(Cc2ccccc2)C1.O=C(O)[C@H](O)[C@@H](O)C(=O)O (centres unmarked) [SB-742034] with PIM3: 28

Reading of %Inh for Cc1ccc(NC(=O)Nc2ccc(Cl)c(C(F)(F)F)c2)cc1-c1ccc(C(=O)Nc2ccncc2)cc1 [GSK1398470] with PIM3: 21

Reading of %Inh for CS(=O)(=O)CCNCc1nc(-c2ccc3ncnc(Nc4ccc5c(cnn5Cc5ccccc5)c4)c3c2)cs1.Cl.Cl [GW569716] with PIM3: 0

Reading of %Inh for CNCc1ccc2nc(NC(=O)c3ccc(C(C)(C)C)cc3)cn2c1 with PIM3: 23

Reading of %Inh for CNC(=O)c1ccc(C)c(-n2c(C)cc(OCc3ccc(F)cc3F)c(Br)c2=O)c1 with PIM3: 0

Reading of %Inh for COc1cccc(NC(=O)Nc2ccc(C)c(-c3ccc(C(=O)Nc4ccncc4)cc3)c2)c1 [GSK1398474] with PIM3: 22

Reading of %Inh for Cc1c(Cn2c3ccccc3n3c(=O)cc(N4CCOCC4)nc23)cccc1C(F)(F)F [GSK2306394] with PIM3: 0

Reading of %Inh for COc1ccc(Nc2nccc(-c3ccc(NC(=O)c4cc5cc(F)ccc5[nH]4)cc3)n2)cc1 [GSK1229496] with PIM3: 0

Reading of %Inh for Cc1ccccc1-c1cc(-c2c[nH]nc2-c2ccccn2)ccn1 [GW680061] with PIM3: 0

Reading of %Inh for COc1ccc(Nc2nccc(N3CCC(NC(=O)c4cc5ccccc5s4)C3)n2)cc1 (centres unmarked) [GSK1379738] with PIM3: 21

Reading of %Inh for COC(=O)C(Cc1ccccc1)NC(=O)NC1CCN(c2ccnc(Nc3ccc(F)cc3)n2)C1 (centres unmarked) [GSK1379714] with PIM3: 0

---

Form field: %Inh (one value per entry).
# Test system: FGR
# condition: concentration: 1 μM, replicates: in singlicate; n = 1
Write the answer as a number in %, unit excluded.

# annotated cases, reported %Inh shown
compound: COc1ccc(CSc2nnc(-c3ccc4c(c3)CCO4)o2)cc1
%Inh [%]: 14

compound: COc1ccc(CSc2nnc(-c3ccc4ncsc4c3)o2)cc1C(F)(F)F
%Inh [%]: 27

compound: Cn1cncc1-c1cc2c(Nc3ccc(OCc4ccccc4)cc3)ncnc2cn1 [GW281179]
%Inh [%]: 18

compound: CNCc1ccc2nc(NC(=O)c3ccc(C(C)(C)C)cc3)cn2c1
%Inh [%]: 0

compound: CCn1c(-c2c(N)noc2C)nc2cnccc21 [SB-737856]
%Inh [%]: 61

Reading of %Inh for COc1ccc(-c2coc3ccc(-c4nnc(C)o4)cc23)cc1 with FGR: 36

Reading of %Inh for CN1c2ccc(-c3ccc(C(N)=O)cc3)cc2-c2[nH]ncc2S1(=O)=O with FGR: 20

Reading of %Inh for FC(F)(F)c1ccccc1-c1cc(-c2c[nH]nc2-c2ccccn2)ccn1 [GW679396] with FGR: 12

Reading of %Inh for COc1ccc(Nc2nccc(N3CCC(NC(=O)C(C)c4ccc(Cl)cc4)C3)n2)cc1 (stereo not drawn) [GSK1379735] with FGR: 10

Reading of %Inh for CC(=O)c1cccc(NC(=O)NC2CCN(c3ccnc(Nc4ccc(F)cc4)n3)C2)c1 (stereo not drawn) [GSK1379710] with FGR: 0

Reading of %Inh for Cc1ccccc1-c1cc(-c2c[nH]nc2-c2ccccn2)ccn1 [GW680061] with FGR: 15

Reading of %Inh for COc1nccc(-c2c(-c3ccc(F)cc3)ncn2CCCN2CCOCC2)n1 [SB-282852] with FGR: 1

---

# Tested on: MAK
# condition: concentration: 1 μM, replicates: in singlicate; n = 1
Form field: %Inh (one value per entry).
Write the answer as a number in %, unit excluded.

# annotated cases, reported %Inh shown
compound: O=C(Nc1n[nH]c2nc(-c3cccs3)c(Br)cc12)C1CCCC1
value observed: 77
--
compound: Nc1cccc(-c2ccc3c(N)n[nH]c3c2)n1
value observed: 26
--
compound: COc1ccc(Nc2nccc(N3CCC(NC(=O)C(C)c4ccc(Cl)cc4)CC3)n2)cc1 (centres unmarked)
value observed: 64
--
compound: COc1cccc(NC(=O)Nc2ccc(C)c(-c3ccc(C(=O)Nc4ccncc4)cc3)c2)c1
value observed: 100

Reading of %Inh for Cc1ccc(NC(=O)Nc2ccccc2F)cc1-c1ccc(C(=O)Nc2ccncc2)cc1 with MAK: 30

---

Form field: %Inh (one value per entry).
# Tested on: EPHB1
# condition: concentration: 1 μM, replicates: in singlicate; n = 1
Write the answer as a number in %, unit excluded.

compound: COc1ccc(Nc2nccc(N3CCC(NC(=O)C(C)c4ccc(Cl)cc4)CC3)n2)cc1 (centres unmarked)
%Inh, %: 34

compound: CCCCc1nn2ncccc2c1-c1ccnc(NC2CC2)n1
%Inh, %: 13

compound: Fc1ccc(-c2nn3cccc(F)c3c2-c2ccncc2)cc1
%Inh, %: 8

compound: CSc1ccc(-c2nc3n(c2-c2ccncc2)CCC3)cc1
%Inh, %: 0

Consider the additional compound presented here.
Input O=C(Nc1n[nH]c2nc(-c3ccco3)c(Br)cc12)C1CCN(Cc2ccccc2)C1.O=C(O)[C@H](O)[C@@H](O)C(=O)O (centres unmarked) . Output %Inh: 7

---

# Tested on: SLK
# condition: concentration: 1 μM, replicates: in singlicate; n = 1
Form field: %Inh (one value per entry).

smiles data: Cc1c(Cn2c(C)c(C)n3c(=O)cc(N4CCOCC4)nc23)cccc1C(F)(F)F
system tested: SLK
value observed: 22%

Reading of %Inh for Cc1nccc(-c2c(-c3ccc(F)cc3)ncn2CCCN2CCOCC2)n1.Cl with SLK: 32%

Reading of %Inh for COc1cc2ncnc(Nc3cccc(Br)c3)c2cc1OC.Cl with SLK: 65%

Reading of %Inh for Nc1cccc(-c2ccc3c(N)n[nH]c3c2)n1 with SLK: 0%

Reading of %Inh for Cc1c(Cn2c3ccccc3n3c(=O)cc(N4CCOCC4)nc23)cccc1C(F)(F)F with SLK: 5%

Reading of %Inh for O=C1NC(=O)C(c2ccc(Cl)cc2)=C1Nc1cccc(Cl)c1 with SLK: 14%

Reading of %Inh for COc1ccc(CSc2nnc(-c3ccc4ncsc4c3)o2)cc1C(F)(F)F with SLK: 15%

Reading of %Inh for CCn1c(-c2c(N)noc2C)nc2cnccc21 with SLK: 4%

Reading of %Inh for Cc1ccc(NC(=O)Nc2ccc(Cl)cc2)cc1-c1ccc(C(=O)Nc2ccncc2)cc1 with SLK: 12%

Reading of %Inh for COc1nccc(-c2c(-c3ccc(F)cc3)ncn2CCCN2CCOCC2)n1 with SLK: 30%

Reading of %Inh for CC(=O)c1c(C)c2cnc(Nc3ccn(C)n3)nc2n(C2CCCC2)c1=O with SLK: 34%

---

# System: CAMKK1
# condition: concentration: 1 μM, replicates: in singlicate; n = 1
Form field: %Inh (one value per entry).
Write the answer as a number in %, unit excluded.

smiles data: O=C(Nc1n[nH]c2cc(-c3ccsc3)ccc12)C1CC1
display unit: %
%Inh: 9
//
smiles data: CSc1ccc(-c2nc3n(c2-c2ccncc2)CCC3)cc1
display unit: %
%Inh: 0

Consider the additional molecule presented here.
Input O=c1cc(N2CCOCC2)nc2n(Cc3cccc(Cl)c3Cl)c3ccccc3n12 . Output %Inh: 27

---

# System: MARK1
# condition: concentration: 1 μM, replicates: in singlicate; n = 1
metric: %Inh (%)
Write the answer as a number in %, unit excluded.

# annotated cases, reported %Inh shown
compound: CS(=O)(=O)Cc1ccc(Nc2nccc(-c3c(-c4cccc(NC(=O)C5CCCCC5)c4)nn4ncccc34)n2)cc1
system tested: MARK1
value observed: 37
--
compound: O=C1NC(=O)C(c2ccc(Cl)cc2)=C1Nc1ccc(O)cc1
system tested: MARK1
value observed: 0
--
compound: O=C(Nc1n[nH]c2nc(-c3cccs3)c(Br)cc12)C1CC1
system tested: MARK1
value observed: 1

Input CC[C@@H]1CO[C@H](C(=O)Nc2ccccc2)CN1c1cc(-c2ccc3c(N)n[nH]c3c2)nc(NC)n1 . Output %Inh: 0

Input COC(=O)C(Cc1ccccc1)NC(=O)NC1CCN(c2ccnc(Nc3ccc(F)cc3)n2)C1 (centres unmarked) . Output %Inh: 0
